Test system: intestinal ulcers and hematocrit in male Wistar rats
Experiment: Ulcerogenic activity
Type: in vivo, rat
Set-up: key: 0:no ulcers; 1:<10 ulcers; 2:10-25 ulcers; 3:>25 ulcers
Conditions: dose 100 mg/kg oral once a day for 4 days; index 0 to 3
Endpoint Label: Lesion index NPU (non-perforated ulcers)
Respond using a number only.

Challenge: Given "Cc1cc(=O)c(Oc2ccc(F)cc2)c(-c2ccc(S(C)(=O)=O)cc2)o1" , state its recorded Lesion index NPU (non-perforated ulcers).
Response given: 0

Continuing:
Challenge: Given "Cc1cc(=O)c(Oc2ccc(F)cc2F)c(-c2ccc(S(C)(=O)=O)cc2)o1" , state its recorded Lesion index NPU (non-perforated ulcers).
Response given: 0

Challenge: Given "Cc1cc(=O)c(Oc2ccc(Cl)cc2)c(-c2ccc(S(C)(=O)=O)cc2)o1" , state its recorded Lesion index NPU (non-perforated ulcers).
Response given: 0

Challenge: Given "Cc1cc(=O)c(-c2ccc(Cl)cc2)c(-c2ccc(S(C)(=O)=O)cc2)o1" , state its recorded Lesion index NPU (non-perforated ulcers).
Response given: 0

----------
Response field label: string, one of class 1 (melting point strictly below 200 °C) or class 0.

Challenge: hey, is melting point for "Cc1cc(=O)c(Cc2ccccc2)c(-c2ccc(S(C)(=O)=O)cc2)o1" lower than 200 °C or not?
Response given: class 1

Challenge: hey, is melting point for "CS(=O)(=O)c1ccc(-c2oc(CO)cc(=O)c2-c2ccc(Cl)cc2)cc1" lower than 200 °C or not?
Response given: class 1

Challenge: hey, is melting point for "Cc1cc(=O)c(Oc2ccc(Br)cc2)c(-c2ccc(S(C)(=O)=O)cc2)o1" lower than 200 °C or not?
Response given: class 1

Challenge: hey, is melting point for "CS(=O)(=O)c1ccc(-c2oc(C(=O)O)cc(=O)c2-c2ccc(Cl)cc2)cc1" lower than 200 °C or not?
Response given: class 0

Continuing:
Challenge: hey, is melting point for "Cc1cc(=O)c(Oc2ccc(F)cc2)c(-c2ccc(S(C)(=O)=O)cc2)o1" lower than 200 °C or not?
Response given: class 1

Challenge: hey, is melting point for "COc1ccc(-c2c(-c3ccc(S(C)(=O)=O)cc3)oc(C)cc2=O)cc1Cl" lower than 200 °C or not?
Response given: class 1

Challenge: hey, is melting point for "Cc1cc(=O)c(-c2ccc(F)cc2)c(-c2ccc(S(N)(=O)=O)cc2)o1" lower than 200 °C or not?
Response given: class 0

Challenge: hey, is melting point for "Cc1cc(=O)c(-c2ccc(Cl)c(Cl)c2)c(-c2ccc(S(C)(=O)=O)cc2)o1" lower than 200 °C or not?
Response given: class 1

Challenge: hey, is melting point for "Cc1cc(=O)c(-c2ccccc2)c(-c2ccc(S(C)(=O)=O)cc2)o1" lower than 200 °C or not?
Response given: class 1

Challenge: hey, is melting point for "Cc1cc(=O)c(-c2ccc(C)c(Cl)c2)c(-c2ccc(S(C)(=O)=O)cc2)o1" lower than 200 °C or not?
Response given: class 1

Challenge: hey, is melting point for "Cc1cc(=O)c(-c2ccc(F)cc2)c(-c2ccc(S(C)(=O)=O)cc2)o1" lower than 200 °C or not?
Response given: class 0

----------
Measured melting point, listed per entry.

Challenge: Given "Cc1cc(=O)c(-c2cccc(Cl)c2)c(-c2ccc(S(C)(=O)=O)cc2)o1" , state its recorded melting point.
Response given: 131 °C

Challenge: Given "Cc1cc(=O)c(-c2cc(F)cc(F)c2)c(-c2ccc(S(C)(=O)=O)cc2)o1" , state its recorded melting point.
Response given: 210 °C

Challenge: Given "Cc1cc(=O)c(-c2ccc(F)c(F)c2)c(-c2ccc(S(C)(=O)=O)cc2)o1" , state its recorded melting point.
Response given: 207 °C

Challenge: Given "CS(=O)(=O)c1ccc(-c2oc(C(F)F)cc(=O)c2-c2ccc(Cl)cc2)cc1" , state its recorded melting point.
Response given: 168 to 170 °C

Continuing:
Challenge: Given "Cc1cc(=O)c(Oc2ccccc2)c(-c2ccc(S(C)(=O)=O)cc2)o1" , state its recorded melting point.
Response given: 169 °C
